Listed next: entries and their corresponding pEC50.
# System: PC3
# assay-summary: In vitro cell proliferation assay (CellTiter-Glo), PC3
# Assay type: cell-based
# condition-info: Homo sapiens, PC-3; Cell line: PC3; Tissue type: prostate; Mutation Status: PTEN; read-out: EC50 (μmole)
pEC50 here: minus log base 10 of the concentration, concentration in moles per litre.

Looking up CC1c2nc3c(N4CCOCC4)nc(-c4cnc(N)nc4)nc3n2CCN1C (centres unmarked) , I see its pEC50 listed as 5.72

---

Parameter pEC50: see the listing below.
# Tested on: MDA-MB-361.1
# assay-summary: In vitro cell proliferation assay (CellTiter-Glo), MDA-MB-361.1
# Format: cell-based
# condition-info: Cell line: MDA-MB-361.1; Tissue type: breast; Mutation Status: PI3K; read-out: EC50 (μmole)
Scale for pEC50: -log10 of concentration given in mol/L; no unit attached.

Some entries whose results are on file:
compound: CC1(C)CCn2c(nc3c(N4CCOCC4)nc(-c4cnc(N)nc4)nc32)O1
measured-metric: pEC50
recorded-result: 6.02
--
compound: CC(C)NC(=O)Nc1ccc(-c2nc(N3CCOCC3)c3nc4n(c3n2)CCOC4(C)C)cc1
measured-metric: pEC50
recorded-result: 5.92
--
compound: CC1c2nc3c(N4CCOCC4)nc(-c4cnc(N)nc4)nc3n2CCN1C (centres unmarked)
measured-metric: pEC50
recorded-result: 6.05
--
compound: CC1(C)CN(c2nc(-c3cnc(N)nc3)nc3c2nc2n3CCOC2(C)C)CCO1
measured-metric: pEC50
recorded-result: 5.82

Consider now this further compound.
Notebook: Oc1cccc(-c2nc(N3CCOCC3)c3nc4n(c3n2)CCOC4C(F)(F)F)c1 (centres unmarked) , pEC50 read as 6.04

---

In this section we review reported EC50 values for a set of molecules.
# Tested on: PC3
# assay-summary: In vitro cell proliferation assay (CellTiter-Glo), PC3
# Format: cell-based
# condition-info: Homo sapiens, PC-3; Cell line: PC3; Tissue type: prostate; Mutation Status: PTEN; read-out: EC50 (μmole)

Worked set:
molecule: CC(C)NC(=O)Nc1ccc(-c2nc(N3CCOCC3)c3nc4n(c3n2)CCOC4(C)C)cc1 [Compound 165]
measured-metric: EC50
recorded-result: 1300 nM
--
molecule: CC1(C)OCCn2c1cc1c(N3CCOCC3)nc(-c3cnc(N)nc3)nc12 [Compound 177]
measured-metric: EC50
recorded-result: 185 nM
--
molecule: Nc1ncc(-c2nc(N3CCOCC3)c3nc4n(c3n2)CCO[C@H]4C(F)(F)F)cn1 [Compound 139]
measured-metric: EC50
recorded-result: 697 nM
--
molecule: Oc1cccc(-c2nc(N3CCOCC3)c3nc4n(c3n2)CCOC4C(F)(F)F)c1 (stereo not shown) [Compound 170]
measured-metric: EC50
recorded-result: 1100 nM
--
molecule: CCNC(=O)Nc1ccc(-c2nc(N3CCOCC3)c3c(n2)C2(C)CCOC2N3C)cc1 (stereo not shown) [Compound 101]
measured-metric: EC50
recorded-result: 208 nM
--
molecule: Cc1nc(N)ncc1-c1nc(N2CCOCC2)c2nc3n(c2n1)CCOC3(C)C [Compound 102]
measured-metric: EC50
recorded-result: 2000 nM

Item: CC1(C)CCn2c(nc3c(N4CCOCC4)nc(-c4cnc(N)nc4)nc32)O1 [Compound 115] | System: PC3 | EC50: 1800 nM

Item CN(C)c1cnc(-c2nc(N3CCOCC3)c3nc4n(c3n2)CCOC4(C)C)cn1 [Compound 163] was tested on PC3; the reported EC50 is > 10000 nM

Field EC50 (system: PC3) for entry Nc1ncc(-c2nc(N3CCOCC3)c3c(n2)N2CCC[C@H]2CO3)cn1 [Compound 122] = 2000 nM

Measured EC50 (PC3), entry CC1(C)CN(c2nc(-c3cnc(N)nc3)nc3c2nc2n3CCOC2(C)C)CCO1 [Compound 172] : 1400 nM

Measured EC50 (PC3), entry FC(F)(F)C1OCCn2c1nc1c(N3CCOCC3)nc(-c3cccc4[nH]ncc34)nc12 (stereo not shown) [Compound 169] : 6900 nM

With PC3 as the test system, C[C@@H]1CN(c2nc(-c3cnc(N)nc3)nc3c2nc2n3CCOC2(C)C)C[C@H](C)O1 [Compound 171] showed EC50 of 3800 nM

---

# System: PC3
# assay-summary: In vitro cell proliferation assay (CellTiter-Glo), PC3
# Type: cell-based
# condition-info: Homo sapiens, PC-3; Cell line: PC3; Tissue type: prostate; Mutation Status: PTEN; read-out: EC50 (μmole)
measured-metric: pEC50
Give only the number. pEC50 is defined as minus log10 of concentration in molar units.

compound-string: CC1(C)OCCc2c1sc1c(N3CCOCC3)nc(-c3cnc(N)nc3)nc21
recorded-result: 6.67

Now take the following compound into account.
Item: CC1(C)OCCn2c1nc1c(N3C[C@@H]4C[C@H]3CO4)nc(-c3cnc(N)nc3)nc12 | pEC50: 5.44
